Origin of the recorded values: PubChem BioAssay AID1996

settings: buffer; pH 7.4; 200.0 µM
Below, each entry is listed with its recorded solubility kinetic.
Give just the numeric value; µg/mL need not be written.

molecule | unit.spec | solubility kinetic
CCOc1ccc(N2CC(C(=O)N3CCCc4ccccc43)CC2=O)cc1 (centres undefined) | µg/mL | 47.2
COc1ccc(NC(=O)NC2(C(=O)N3CCOCC3)CCCCC2)cc1 | µg/mL | 43
COC(=O)NCN1C(=O)C2C3C=CC(C3)C2C1=O (centres undefined) | µg/mL | 34.4

Ask: Any idea what its solubility kinetic is? The molecule is Cc1ccccc1NC(=O)CSc1ccncc1
Result: 36

Ask: Repeat with O=C(COC(=O)COc1ccccc1F)NC1CC1
Result: 37

Ask: Repeat with O=C(/C=C/c1ccc(Br)o1)Nc1nccs1
Result: 4.3

Ask: Repeat with COc1ccc(-n2cc([N+](=O)[O-])c(=O)c3ccc(Cl)cc32)cc1
Result: 0.7
